Test system: biotinyl-Trp-oxazolone
EXPERIMENT: self-aminoacylation, catalytic enhancement (BWO) (fold over background); higher = more active; k-Seq, kA / k0A0; sequences stand for … in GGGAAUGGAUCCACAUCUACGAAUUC…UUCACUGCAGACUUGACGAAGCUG
This sample holds only a part of the variants without activity.
Returns one of True or False; True when self-aminoacylation is >= 2.

{"SEQUENCE CONTENT": "AUUCACCUACGUCCUCGGGUG [Fam2.2 aminoacylation ribozyme variant]", "ASSIGNED LABEL": "True"}
{"SEQUENCE CONTENT": "AAGUUUGCUAAGAGUCGUAAG [Fam3.1 aminoacylation ribozyme variant]", "ASSIGNED LABEL": "True"}
{"SEQUENCE CONTENT": "AUGUUUGCUAAUAGUCGCAAC [Fam3.1 aminoacylation ribozyme variant]", "ASSIGNED LABEL": "False"}
{"SEQUENCE CONTENT": "AAAUUUGCUAAUAGUCGCGAG [Fam3.1 aminoacylation ribozyme variant]", "ASSIGNED LABEL": "True"}
{"SEQUENCE CONTENT": "AUUACCAUGGUCGUCGAGUGA [Fam2.1 aminoacylation ribozyme variant]", "ASSIGNED LABEL": "False"}
{"SEQUENCE CONTENT": "GAGUAUGCUAAUAGUCGCAAG [Fam3.1 aminoacylation ribozyme variant]", "ASSIGNED LABEL": "True"}
{"SEQUENCE CONTENT": "AUCCACCUAGGCCAUCGGGUG [Fam2.2 aminoacylation ribozyme variant]", "ASSIGNED LABEL": "True"}
{"SEQUENCE CONTENT": "AAUACCCUGGUCAACGAGUGA [Fam2.1 aminoacylation ribozyme variant]", "ASSIGNED LABEL": "True"}
